test.system: HER2 (A775_G776insYVMA) expressing Ba/F3 stable cell line (Homo sapiens, UniProt P04626, DUP772-775, cells depend on it)
Sequence (P04626 with tags, fused parts or gaps DUP772-775): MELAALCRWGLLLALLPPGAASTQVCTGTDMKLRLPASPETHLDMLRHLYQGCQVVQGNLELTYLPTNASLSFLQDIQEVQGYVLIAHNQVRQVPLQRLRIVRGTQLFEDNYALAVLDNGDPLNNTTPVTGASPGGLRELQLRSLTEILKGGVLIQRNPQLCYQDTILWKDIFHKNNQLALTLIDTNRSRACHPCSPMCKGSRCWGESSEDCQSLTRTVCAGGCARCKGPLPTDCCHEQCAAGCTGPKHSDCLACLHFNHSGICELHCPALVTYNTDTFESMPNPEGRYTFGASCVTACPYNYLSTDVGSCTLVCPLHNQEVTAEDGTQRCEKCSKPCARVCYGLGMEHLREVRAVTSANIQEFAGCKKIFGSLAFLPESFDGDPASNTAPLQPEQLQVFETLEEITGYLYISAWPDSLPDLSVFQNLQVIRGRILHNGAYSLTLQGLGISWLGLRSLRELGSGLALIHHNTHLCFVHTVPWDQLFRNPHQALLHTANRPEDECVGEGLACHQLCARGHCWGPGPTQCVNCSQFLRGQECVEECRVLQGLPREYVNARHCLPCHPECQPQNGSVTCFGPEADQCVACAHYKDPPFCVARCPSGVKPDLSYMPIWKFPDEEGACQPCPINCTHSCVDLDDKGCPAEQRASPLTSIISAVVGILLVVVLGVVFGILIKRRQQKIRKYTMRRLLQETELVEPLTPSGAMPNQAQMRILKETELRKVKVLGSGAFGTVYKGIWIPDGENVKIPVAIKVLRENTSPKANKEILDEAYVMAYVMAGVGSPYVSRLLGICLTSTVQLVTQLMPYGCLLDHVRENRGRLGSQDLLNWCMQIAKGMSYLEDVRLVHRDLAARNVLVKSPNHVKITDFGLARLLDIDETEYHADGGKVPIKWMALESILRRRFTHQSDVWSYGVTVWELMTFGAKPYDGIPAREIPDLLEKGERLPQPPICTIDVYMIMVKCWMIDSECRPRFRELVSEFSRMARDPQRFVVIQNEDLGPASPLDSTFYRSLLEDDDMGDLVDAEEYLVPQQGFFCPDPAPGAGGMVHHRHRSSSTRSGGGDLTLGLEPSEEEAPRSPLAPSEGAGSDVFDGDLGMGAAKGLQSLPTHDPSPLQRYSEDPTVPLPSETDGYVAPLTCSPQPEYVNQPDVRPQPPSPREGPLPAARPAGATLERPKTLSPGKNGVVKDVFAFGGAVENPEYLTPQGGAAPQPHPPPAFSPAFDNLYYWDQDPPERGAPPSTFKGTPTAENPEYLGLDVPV
test.name: Cellular proliferation (Alamar Blue) assay, HER2 YVMA Ba/F3
Assay type: cell-based
test.conditions: HER2 A775_G776insYVMA Ba/F3, 72 hr, read-out: YVMA IC50
// reported GI50 for each item listed
Number in nM, nothing else.

> print(dat)
                              record.smiles   u  test.result
1  C=CC(=O)Nc1cccc(N2C(=O)N(Cc3ccccc3)Cc3cnc(Nc4cn(C)nc4Cl)nc32)c1  nM           49
2  C=CC(=O)Nc1ccc(F)c(N2C(=O)N(Cc3ccccc3)Cc3cnc(Nc4cn(C)nc4Cl)nc32)c1  nM           13
3  C=CC(=O)Nc1ccc(N2C(=O)N(c3ccccc3)Cc3cnc(Nc4cn(C)nc4Cl)nc32)cc1  nM         1130
4  CN(C)C/C=C/C(=O)Nc1cccc(N2C(=O)N(Cc3ccccc3)Cc3cnc(Nc4cccc5c4CCN5C)nc32)c1  nM          296
5  Cn1cc(Nc2ncc3c(n2)N(c2cccc(NC(=O)/C=C/CF)c2)C(=O)N(Cc2ccccc2)C3)c(F)n1  nM          101

// returns reported GI50 for input C=CC(=O)Nc1cccc(N2C(=O)N(c3ccccc3)Cc3cnc(Nc4ccc(N5CCC(N(C)C)CC5)nc4)nc32)c1
354

// returns reported GI50 for input COC/C=C/C(=O)Nc1cccc(N2C(=O)N(c3ccccc3)Cc3cnc(Nc4cn(C)nc4Cl)nc32)c1
144

// returns reported GI50 for input C=CC(=O)Nc1cccc(N2C(=O)N(Cc3ccccc3)Cc3cnc(Nc4cnn(CCOC)c4)nc32)c1
23

// returns reported GI50 for input O=C(/C=C/CF)Nc1cccc(N2C(=O)N(c3ccccc3)Cc3cnc(Nc4cccnc4F)nc32)c1
294

// returns reported GI50 for input C=CC(=O)Nc1cccc(N2C(=O)N(c3ccccc3)Cc3cnc(Nc4cccnc4F)nc32)c1
188

// returns reported GI50 for input C=C(C)C(=O)Nc1cccc(N2C(=O)N(c3ccccc3)Cc3cnc(Nc4cn(C)nc4Cl)nc32)c1
883

// returns reported GI50 for input CN(C)C/C=C/C(=O)Nc1cccc(N2C(=O)N(Cc3ccccc3)Cc3cnc(Nc4ccc(N5CCN(C)CC5)nc4)nc32)c1
1760

// returns reported GI50 for input CN(C)C/C=C/C(=O)Nc1cccc(N2C(=O)N(c3ccccc3)Cc3cnc(Nc4cccnc4F)nc32)c1
1150

// returns reported GI50 for input C=CC(=O)Nc1cccc(N2C(=O)N(c3ccccc3)Cc3cnc(Nc4ccc(N5CCN(C)CC5)nc4)nc32)c1
103

// returns reported GI50 for input CN(C)C/C=C/C(=O)Nc1cccc(N2C(=O)N(c3ccccc3)Cc3cnc(Nc4cn(C)nc4Cl)nc32)c1
154

====

// reported GI50 for each item listed
test.system: EGFR(D770_N771insSVD) expressing Ba/F3 stable cell line (Homo sapiens, UniProt P00533, DUP768-770, cells depend on it)
Sequence (P00533 with tags, fused parts or gaps DUP768-770): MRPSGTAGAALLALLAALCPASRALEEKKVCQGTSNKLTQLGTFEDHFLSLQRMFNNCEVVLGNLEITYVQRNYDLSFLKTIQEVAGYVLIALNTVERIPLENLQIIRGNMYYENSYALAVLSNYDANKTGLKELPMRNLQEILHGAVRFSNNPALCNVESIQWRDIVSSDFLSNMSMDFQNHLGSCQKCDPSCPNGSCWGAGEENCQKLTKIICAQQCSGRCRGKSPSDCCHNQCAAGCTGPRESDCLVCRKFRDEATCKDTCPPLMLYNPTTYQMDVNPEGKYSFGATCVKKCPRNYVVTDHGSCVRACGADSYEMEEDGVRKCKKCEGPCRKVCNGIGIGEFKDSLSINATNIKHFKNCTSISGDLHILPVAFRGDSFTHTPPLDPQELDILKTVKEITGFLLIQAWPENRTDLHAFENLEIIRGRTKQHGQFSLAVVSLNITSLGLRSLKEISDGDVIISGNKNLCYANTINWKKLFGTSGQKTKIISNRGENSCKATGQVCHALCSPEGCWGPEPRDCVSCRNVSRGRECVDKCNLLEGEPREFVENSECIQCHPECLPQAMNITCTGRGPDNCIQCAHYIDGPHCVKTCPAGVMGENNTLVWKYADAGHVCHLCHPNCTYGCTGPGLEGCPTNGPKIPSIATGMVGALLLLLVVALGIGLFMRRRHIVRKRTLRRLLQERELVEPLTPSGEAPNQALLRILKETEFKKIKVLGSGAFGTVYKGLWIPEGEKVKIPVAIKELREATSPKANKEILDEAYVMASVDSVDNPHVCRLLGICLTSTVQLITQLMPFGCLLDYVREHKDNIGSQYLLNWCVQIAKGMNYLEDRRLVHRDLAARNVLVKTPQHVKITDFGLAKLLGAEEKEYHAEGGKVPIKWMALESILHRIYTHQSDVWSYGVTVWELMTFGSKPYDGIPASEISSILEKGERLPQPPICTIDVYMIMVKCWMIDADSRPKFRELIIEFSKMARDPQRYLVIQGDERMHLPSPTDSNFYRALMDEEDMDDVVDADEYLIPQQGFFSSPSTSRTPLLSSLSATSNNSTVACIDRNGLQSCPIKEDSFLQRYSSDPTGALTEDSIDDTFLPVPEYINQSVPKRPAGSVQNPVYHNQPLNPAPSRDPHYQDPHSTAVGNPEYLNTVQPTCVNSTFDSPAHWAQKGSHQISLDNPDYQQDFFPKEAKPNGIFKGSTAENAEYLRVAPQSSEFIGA
test.name: Cellular proliferation (Alamar Blue) assay, EGFR D770_N771insSVD Ba/F3
Type: cell-based
test.conditions: EGFR D770_N771insSVD Ba/F3, 72 hr, read-out: D770 IC50
Number in nM, nothing else.

In the examples that follow, each entry is paired with its recorded GI50.
> print(dat)
                                   molecule  measured.quantity  test.result
1  CN(C)C/C=C/C(=O)Nc1cccc(N2C(=O)N(c3ccccc3)Cc3cnc(Nc4ccc(N5CCN(C)CC5)nc4)nc32)c1               GI50         6030
2  CN(C)C/C=C/C(=O)N(C)c1cccc(N2C(=O)N(Cc3ccccc3)Cc3cnc(Nc4cn(C)nc4Cl)nc32)c1               GI50         1460
3  Cc1cc(Nc2ncc3c(n2)N(C2CCCC(NC(=O)/C=C/CN(C)C)C2)C(=O)N(Cc2ccccc2)C3)sn1 (stereo not shown)               GI50         2880
4  C=CC(=O)Nc1cccc(N2C(=O)N(Cc3ccccc3)Cc3cnc(Nc4cn(CC(F)(F)F)nc4C)nc32)c1               GI50            9

// returns reported GI50 for input Cc1cn2cc(Nc3ncc4c(n3)N(c3cccc(NC(=O)/C=C/CN(C)C)c3)C(=O)N(Cc3ccccc3)C4)ccc2n1
4810

// returns reported GI50 for input CN(C)C/C=C/C(=O)Nc1cccc(N2C(=O)N(Cc3ccccc3)Cc3cnc(Nc4cnn5c4OCCC5)nc32)c1
2540

// returns reported GI50 for input CN(C)C1CCN(C/C=C/C(=O)Nc2cccc(N3C(=O)N(c4ccccc4)Cc4cnc(Nc5cn(C)nc5Cl)nc43)c2)CC1
4980

Values compiled from patent US20230027026A1.
